Source of measurements: ChEMBL document CHEMBL1909590

System: Mycolicibacterium fortuitum
assay_remarks: Antimycobacterial activity against Mycobacterium fortuitum ATCC 19542 using compound level ranging from 1 to 100 ug/mL after 7 days by resazurin reduction test
Type: functional
test_parameters: ATCC 19542, 168 h
assay_endpoint: MIC (µg/mL)

                              sample_smiles                tested_target   unit  result_operator  result_value
0  Cc1ccc(/C=N/NC(=O)c2cnc3c(C(F)(F)F)cccc3c2O)cc1  Mycolicibacterium fortuitum  µg/mL                >           100
1  O=C(N/N=C/c1cnc[nH]1)c1cnc2c(C(F)(F)F)cccc2c1O  Mycolicibacterium fortuitum  µg/mL                =            10
2  COc1ccc(/C=N/NC(=O)c2cnc3c(C(F)(F)F)cccc3c2O)c(F)c1  Mycolicibacterium fortuitum  µg/mL                =            10
